Test system: A549/ATCC NSCLC
PROCEDURE_DETAILS: NCI-60 one-dose screen, 48 h (100 = growth as untreated, 0 = no growth, -100 = all killed)
APPLIED_CONDITIONS: 10 µM unless noted
The panel holds about 83,000 compounds, 20% with a hit somewhere; the sample as a whole holds those more often.
MEASURED_ENDPOINT: growth (%)
Reply numerically in %, unit not repeated.

For orientation, consider the following solved cases.
- CCN1C(=O)N(CC)C2C1NN=c1s/c(=C\c3cnc(C)n3C)c(=O)n12 (centres undefined): 15.8
- Cc1ccc(-c2csc(N(C(=O)N3CCN(c4cc5c(cc4F)c(=O)c(C(=O)O)cn5C4CC4)CC3)c3ccccc3)n2)cc1: 13.7
- COC(=O)c1c2c(c(C)[n+]([O-])c1C)C(=O)C(NCc1ccc(OC)cc1)=CC2=O: 4.4
- Cc1cccc(N2CCC(=O)NC2=S)c1: 99.1
- O=C(Cc1ccc(/C=C/C(=O)c2ncc[nH]2)cc1)Nc1cc(C(F)(F)F)cc(C(F)(F)F)c1: 81.1
- COc1ccc(Oc2nc(Nc3ccc(N4CCOCC4)cc3)ncc2NC(=O)Nc2cc(OC)cc(OC)c2)cc1: 2.22
- CCCCNC(=O)Oc1ccc(/C(=C(/C)Cc2ccc(OC)cc2)c2ccc(OCCN3CCCCCC3)cc2)cc1: 68
- O=C(NCc1cccc(CNC(=O)Nc2nc3ccccc3[nH]2)c1)Nc1nc2ccccc2[nH]1: -42.5

API: the following record is the query input.
O=S(=O)(NCCNc1nccc(-c2c(-c3cccc(O)c3)nc3occn23)n1)c1ccc(Br)cc1 has a reported growth of 20.9

====

# growth annotations
Test system: MDA-MB-435 melanoma
PROCEDURE_DETAILS: NCI-60 one-dose screen, 48 h (100 = growth as untreated, 0 = no growth, -100 = all killed)
APPLIED_CONDITIONS: 10 µM unless noted
Compounds without any hit were thinned out: in the full panel of roughly 83,000, 20% have a hit. Calls of active or inactive are those of the source. The calls were made as follows: active = growth percent below 10; inactive = the rest.

* NS(=O)(=O)c1ccc(C(=O)NN2C(=O)c3c(Br)c(Br)c(Br)c(Br)c3C2=O)cc1 | 103% (inactive)
* CN(Cc1cc(Br)cc(Br)c1O)Cc1cc(Br)cc(Br)c1O | 52.6% (inactive)
* COc1ccc(/C=C2\COc3ccc(O)cc3C2=O)cc1 | 78.7% (inactive)
* S=C(c1ccc2c(c1)OCO2)N1CCN(c2cccc(Cl)c2)CC1 | -37.7% (active)

CCCCCCCCCCCCCOC(=O)c1c(C)[nH]c(/C=C2\N=C(c3ccc[nH]3)C=C2OC)c1C has a reported growth of 19.2% (inactive)

====

Tested on: UACC-257 melanoma
PROCEDURE_DETAILS: NCI-60 one-dose screen, 48 h
APPLIED_CONDITIONS: 10 µM unless noted
The panel holds about 83,000 compounds, 20% with a hit somewhere; the sample as a whole holds those more often. Activity calls are given as the source filed them. How the source made its calls: active means growth percent below 10; inactive means the rest.
Hi! Could you answer with just one of these? class 1 for active, class 0 for inactive

Please review the entries below; each comes with its answer.
* O=C1/C=C/[C@@H](O)[C@@H]2C[C@@H](O)C[C@H]2/C=C/CCC[C@H](CCO)O1 | class 0
* CCCCNc1cc(-c2cn[nH]c2-c2cc(C)cc(OC)c2)nc(-c2cccnc2)n1 | class 0

Qu. What call does the record list for Cc1nc2ccccc2c(/C=C/c2ccccc2)c1C(=O)/C=C/c1ccccc1 ?
Ans. class 1

Qu. What call does the record list for COc1cc2nc3sc(C(=O)Nc4ccc(C(=O)OC(C)C)cc4)c(C(=O)Nc4ccc(Cl)cc4C)n3c(=O)c2cc1OC ?
Ans. class 0

Qu. What call does the record list for COc1cc(/C=N/Nc2ccc(Br)cc2)cc(OC)c1OC ?
Ans. class 0

Qu. What call does the record list for COc1ccc(/C=C/c2c(C(=O)/C=C/c3ccccc3)c(C)nc3ccccc23)cc1 ?
Ans. class 1

Qu. What call does the record list for C=C1C(=O)O[C@H]2[C@H]1CC/C(Cn1cc(CCC)nn1)=C\CC[C@@]1(C)O[C@@H]21 ?
Ans. class 0

Qu. What call does the record list for Cc1cccc(-c2nc(Nc3ccc4ncsc4c3)c3ccccc3n2)n1 ?
Ans. class 0

Qu. What call does the record list for Cc1ccc(C)c2c(C)c(C(=O)Nc3cccc(-n4cccn4)c3)oc12 ?
Ans. class 0

Qu. What call does the record list for CC1CCN(C(=O)CCCl)c2ccccc21 (stereo not given) ?
Ans. class 0
